Exercise: state measured PBM binding z-score for each of the sequences provided.
# Tested on: LXRa homodimer (NR concentration 270 nM)
# Assay name: PBM binding z-score (relative to random genomic background probes); higher = stronger binding; sequences stand for … in GC…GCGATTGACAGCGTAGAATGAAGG
Hey, just send me the number, nothing else.

Problem: Suppose we examine the sequence `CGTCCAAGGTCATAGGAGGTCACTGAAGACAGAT` ; what PBM binding z-score value has been reported?
Result: 6.16

Problem: Entry under review: `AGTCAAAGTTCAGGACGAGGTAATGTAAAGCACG` . Reported PBM binding z-score?
Result: 1.28

Problem: So what does the record say about PBM binding z-score for `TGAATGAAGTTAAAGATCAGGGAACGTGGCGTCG` ?
Result: -0.348

Problem: Reported PBM binding z-score for `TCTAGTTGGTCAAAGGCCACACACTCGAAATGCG` : what is it?
Result: 0.139

Problem: // returns reported PBM binding z-score for input `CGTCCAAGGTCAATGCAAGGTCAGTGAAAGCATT`
Result: 4.1

Problem: // query PBM binding z-score value for entry `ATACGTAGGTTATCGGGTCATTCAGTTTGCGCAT`
Result: 1.41

Problem: # query: PBM binding z-score of entry `ATATGTAGGCTAGGGTCATTCAGAAAGTAGGGAA`
Result: 0.43

Problem: Data request, read-out PBM binding z-score, for `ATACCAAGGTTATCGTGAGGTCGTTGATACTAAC`
Result: 2.28

Problem: Tell me the measured PBM binding z-score of `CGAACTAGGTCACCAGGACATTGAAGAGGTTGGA` , please.
Result: 0.557

Problem: Fill blank: measured PBM binding z-score of the sequence `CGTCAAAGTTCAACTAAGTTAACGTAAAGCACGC` is ____.
Result: 4.61

Problem: So what does the record say about PBM binding z-score for `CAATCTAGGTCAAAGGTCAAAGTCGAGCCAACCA` ?
Result: 6.51

Problem: Given the sequence `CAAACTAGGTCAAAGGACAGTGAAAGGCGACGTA` , what is its reported PBM binding z-score?
Result: 0.388

###

# Test system: RXRa DBDmut IVT, anti-RXR (DBD mutation: RXRa K156A/R161A, NR concentration 90 nM)
# Assay name: PBM binding z-score (relative to random genomic background probes); higher = stronger binding; sequences stand for … in GC…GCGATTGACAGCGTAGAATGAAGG
Readout type: PBM binding z-score
Just the number, please.

Problem: Give the measured PBM binding z-score of `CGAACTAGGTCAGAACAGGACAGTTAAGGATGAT` .
Result: 0.671

Problem: GET /values?readout=PBM binding z-score&item= `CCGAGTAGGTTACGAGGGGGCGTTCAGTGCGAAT`
Result: 1.17

Problem: Which PBM binding z-score is listed for `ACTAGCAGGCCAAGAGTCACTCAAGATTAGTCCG` ?
Result: -0.426

Problem: # PBM binding z-score lookup, item `CTATGTAGGTTAAGGGGGTCATTCGGTTTGAAAG`
Result: 2.56

Problem: Query: PBM binding z-score; subject: `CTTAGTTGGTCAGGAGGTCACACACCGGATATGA`
Result: 1.06

Problem: What does the record list as PBM binding z-score for `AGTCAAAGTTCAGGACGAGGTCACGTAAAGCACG` ?
Result: 3.45

Problem: Query: PBM binding z-score; subject: `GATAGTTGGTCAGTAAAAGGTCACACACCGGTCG`
Result: 0.579

Problem: Fill in: PBM binding z-score of `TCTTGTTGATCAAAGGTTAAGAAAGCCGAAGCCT` is ___
Result: 0.76

Problem: GET /values?readout=PBM binding z-score&item= `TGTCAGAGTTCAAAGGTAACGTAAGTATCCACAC`
Result: 4.83

Problem: Sample `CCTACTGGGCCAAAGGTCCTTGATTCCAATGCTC` — what was its PBM binding z-score?
Result: -0.459

Problem: Look at this sequence and give its reported PBM binding z-score. `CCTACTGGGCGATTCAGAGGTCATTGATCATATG`
Result: 0.873

Problem: Fill in the blank: the reported PBM binding z-score of `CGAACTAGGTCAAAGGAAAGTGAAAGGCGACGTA` is ____.
Result: 1.15
